# measurement target: TcTryR (recombinant T. cruzi trypanothione reductase) (Trypanosoma cruzi, UniProt P28593)
# Sequence (P28593 whole entry): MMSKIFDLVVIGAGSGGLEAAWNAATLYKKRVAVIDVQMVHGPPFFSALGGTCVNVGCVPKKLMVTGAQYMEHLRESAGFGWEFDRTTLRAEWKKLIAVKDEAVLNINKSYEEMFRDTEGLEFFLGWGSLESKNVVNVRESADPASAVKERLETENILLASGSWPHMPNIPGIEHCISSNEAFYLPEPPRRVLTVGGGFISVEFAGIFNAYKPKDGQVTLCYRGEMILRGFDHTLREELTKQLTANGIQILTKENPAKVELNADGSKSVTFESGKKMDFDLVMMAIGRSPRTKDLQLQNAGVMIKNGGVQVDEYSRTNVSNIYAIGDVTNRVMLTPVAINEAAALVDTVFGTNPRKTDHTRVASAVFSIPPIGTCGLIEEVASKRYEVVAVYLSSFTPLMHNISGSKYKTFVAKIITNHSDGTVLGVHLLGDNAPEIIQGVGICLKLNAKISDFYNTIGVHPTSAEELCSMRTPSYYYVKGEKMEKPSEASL
# measurement protocol: 412 nm DTNB-coupled trypanothione reductase assay (IC50, Km)
# condition: 412 nm assay, T(S)2 at S = Km (10.4 μM), weighted mean of three occasions
Returns: string. Value is yes (1) if measured IC50 is below 30 µM, and no (0) if it is greater than or equal to it.

Record CN(C)CCC(=O)c1ccc(S(C)(=O)=O)cc1 [DM5a] : is its IC50 strictly below 30 µM? yes (1)

Record CN(C)CCC(=O)c1cccc([N+](=O)[O-])c1 [DM6a] : is its IC50 strictly below 30 µM? yes (1)

Record CC(C)(C)c1cc(CN(CCO)CCO)cc(C(C)(C)C)c1O [DM7a] : is its IC50 strictly below 30 µM? yes (1)

Record CN(C)CCCC1(c2ccc(F)cc2)OCc2cc(C#N)ccc21 (centres unmarked) [Citalopram] : is its IC50 strictly below 30 µM? no (0)

Record CCN(CC)CCCC(C)Nc1c2ccc(Cl)cc2nc2ccc(OC)cc12 (centres unmarked) [Quinacrine] : is its IC50 strictly below 30 µM? no (0)
